Assay: WST-1 cytotoxicity test, A549
Assay type: cell-based
Conditions: human, A549 cells; A549, doxorubicin 1 µM cytotoxicity control, WST-1, mean ± SD; read-out: relative viability (%) compared to untreated control
property_label: viability at 48 h, 1 µM (%)
# unit: % | format: bare number

Lookup: Tell me its viability at 48 h, 1 µM given COc1cccc2c1C(=O)c1c(O)c3c(c(O)c1C2=O)C[C@@](O)(C(=O)CO)C[C@@H]3O[C@H]1C[C@H](N)[C@H](O)[C@H](C)O1 [DOX, doxorubicin, reference compound] as the entry.
Found: 42

====

Test: WST-1 cytotoxicity test, MRC-5
Type: cell-based
Settings: human, MRC-5 cells; MRC-5, 10 µM, 48 h, WST-1, mean ± SD of three experiments; read-out: relative viability (%) compared to untreated control
property_label: viability at 48 h, 10 µM (%)
A number alone suffices; assume %.

Lookup: Answer with reported viability at 48 h, 10 µM of `Cl.Cl.Cl.OCCN1CCN(CCCNc2cccc3ccccc23)CC1`
Found: 91

Lookup: Please supply the value of reported viability at 48 h, 10 µM for the item Cc1cc(OCC(O)CN2CCN(CCO)CC2)ccc1Cl.Cl.Cl (stereo not drawn)
Found: 97

Lookup: Give the value of viability at 48 h, 10 µM reported for the following: `OCCN1CCN(CC(O)CN2CCN(CCO)CC2)CC1`
Found: 95

Lookup: Could you please provide reported viability at 48 h, 10 µM for Cl.Cl.Cl.OCCN1CCN(CC(O)CNc2ccccc2)CC1 (stereo not drawn) ? Thanks!
Found: 102

Lookup: Please list viability at 48 h, 10 µM recorded for the compound `Cl.Cl.Cl.OCCN1CCN(CCCNc2ccccc2)CC1`
Found: 98

Lookup: Output measured viability at 48 h, 10 µM for this item: `COc1ccc2nc3c(c(NCCN4CCN(CCO)CC4)c2c1)CCCC3.Cl.Cl.Cl`
Found: 84

Lookup: Provide only the value of recorded viability at 48 h, 10 µM for `Cl.Cl.OC(CNc1ccccc1)CNc1ccccc1`
Found: 102

Lookup: Fill in viability at 48 h, 10 µM for record `COc1ccc(NCCCN2CCN(CCO)CC2)cc1.Cl.Cl.Cl`
Found: 100

Lookup: Give the measured viability at 48 h, 10 µM for `COc1ccc2nc3c(c(NCCN4CCNCC4)c2c1)CCCC3.Cl.Cl.Cl`
Found: 23

====

Assignment: determine reported viability at 48 h, 10 µM for the given compounds.
Experiment: WST-1 cytotoxicity test, HT-29
Assay type: cell-based
Conditions: human, HT-29 cells; HT-29, 10 µM, 48 h, WST-1, mean ± SD of three experiments; read-out: relative viability (%) compared to untreated control
Please answer in the form of a number followed by its unit of measurement.

Lookup: Supply recorded viability at 48 h, 10 µM for `COc1ccc2nc3c(c(NCCN4CCN(CCO)CC4)c2c1)CCCC3.Cl.Cl.Cl` here.
Found: 85%

Lookup: Entry `Cl.Cl.OC(CNc1ccccc1)CNc1ccccc1` needs its viability at 48 h, 10 µM filled in; supply it.
Found: 102%

Lookup: Provide one value: measured viability at 48 h, 10 µM of Cc1cc(OCC(O)CN2CCN(CCO)CC2)ccc1Cl.Cl.Cl (stereo not drawn)
Found: 100%

Lookup: Give the reported viability at 48 h, 10 µM for this compound. `OCCN1CCN(CC(O)CN2CCN(CCO)CC2)CC1`
Found: 101%

Lookup: Indicate its recorded viability at 48 h, 10 µM; the compound in question is `Cl.Cl.Cl.OCCN1CCN(CCCNc2ccccc2)CC1`
Found: 91%

Lookup: Determine its reported viability at 48 h, 10 µM: `Cl.Cl.Cl.OCCN1CCN(CCCNc2cccc3ccccc23)CC1`
Found: 86%

Lookup: Give viability at 48 h, 10 µM for `COc1ccc(NCCCN2CCN(CCO)CC2)cc1.Cl.Cl.Cl`
Found: 96%

Lookup: State its viability at 48 h, 10 µM: `COc1ccc2nc3c(c(NCCN4CCNCC4)c2c1)CCCC3.Cl.Cl.Cl`
Found: 28%

Lookup: Provide measured viability at 48 h, 10 µM value, entry: Cl.Cl.Cl.OCCN1CCN(CC(O)CNc2ccccc2)CC1 (stereo not drawn)
Found: 104%
